- System: Streptococcus mutans
- Test summary: Compound is evaluated for minimal bactericidal concentration against plaque formation for Streptococcus mutans
- Assay type: functional, organism-based
Endpoint: Concentration

Sample answers from the record:
smiles_repr=CCCCCCCN=c1ccn(CCCCCCCCCCCCn2ccc(=NCCCCCCC)cc2)cc1.Cl.Cl endpoint=Concentration result="2.81 mM"
smiles_repr=Br.Br.CCCCCCCCN=c1ccn(CCCCCCCCCCCCn2ccc(=NCCCCCCCC)cc2)cc1 endpoint=Concentration result="2.7 mM"
smiles_repr=CCCCCCCCN=c1ccn(CCCCCCCCn2ccc(=NCCCCCCCC)cc2)cc1.Cl.Cl endpoint=Concentration result="8.8 mM"

Ask: Consider the compound "CCCCCCCN=c1ccn(CCCCCCCCCCn2ccc(=NCCCCCCC)cc2)cc1.Cl.Cl" . State its measured Concentration.
Reply: 0.73 mM

Ask: Recall and state the measured Concentration for "CCCCCCCCCN=c1ccn(CCCCCCn2ccc(=NCCCCCCCCC)cc2)cc1.Cl.Cl" .
Reply: 7.3 mM

Ask: Tell me measured Concentration for "Br.Br.CCCCCCCCCN=c1ccn(CCCCCCCCCCCCn2ccc(=NCCCCCCCCC)cc2)cc1" please.
Reply: 1.3 mM

Ask: Hello, please tell me recorded Concentration for this one: "Br.Br.CCCCCCCCCN=c1ccn(CCCCCCCCCCn2ccc(=NCCCCCCCCC)cc2)cc1"
Reply: 1.35 mM

Ask: For the compound "Br.Br.CCCCCCCCN=c1ccn(CCCCCCCCCCCCCCn2ccc(=NCCCCCCCC)cc2)cc1" , give its measured Concentration value.
Reply: 1.3 mM

Ask: Give Concentration for the following compound: "CCCCCCN=c1ccn(CCCCCCCCCCCCCCn2ccc(=NCCCCCC)cc2)cc1.Cl.Cl"
Reply: 1.4 mM
